# ASSAY_EXPLANATION: Cell-based metabolism/clearance of sorafenib
# Type: in vitro ADME, human
# MEASUREMENT_CONDITIONS: human, MHCC97-H cells, Half-Life Time (t1/2, h), MHCC97-H, Cell-based, Control; 1 μmol/L sorafenib
VALUE_KIND: half-life at 1 μmol/L
Answers without a unit are incomplete; give the number and then its unit.

Entry under review: CNC(=O)c1cc(Oc2ccc(NC(=O)Nc3ccc(Cl)c(C(F)(F)F)c3)cc2)ccn1 . Reported half-life at 1 μmol/L?
18.6 h
